Starred links: 1 amine or outer side, 2 acyl side, 3 side chain; linkers in the order of their positions; H or OH if unused. Non-standard residues stand in square brackets, D forms with d. Residues, ends and D or L forms follow the SMILES beside them. Phe(4-SO3H) = N[C@@H](Cc1ccc(S(=O)(=O)O)cc1)C(=O)O; X3 = O=C(C[C@@H]1CCCC[C@@H]1N[*:1])[*:2]; X4 = Cc1ccc(N[*:1])cc1C(=O)[*:2]; 4Abz = Nc1ccc(C(=O)O)cc1; CO = O=C([*:1])[*:2]; Ahx = NCCCCCC(=O)O; Ava = NCCCCC(=O)O; GABA = NCCCC(=O)O
Measurement record for Gastrin/cholecystokinin type B receptor (Bos taurus); quantity recorded: IC50.
Answers are plain numbers, in nM.

CSCC[C@H](NC(=O)[C@H](Cc1c[nH]c2ccccc12)NC(=O)CCCNC(=O)[C@H](Cc1ccc(S(=O)(=O)O)cc1)NC(=O)O)C(=O)N[C@@H](CC(=O)O)C(=O)N[C@@H](Cc1ccccc1)C(N)=O ({CO}-[Phe(4-SO3H)][GABA]WMDF-NH2) | 1.8
CSCC[C@H](NC(=O)[C@H](Cc1ccc(S(=O)(=O)O)cc1)NC(=O)O)C(=O)NCC(=O)N[C@@H](Cc1c[nH]c2ccccc12)C(=O)N[C@@H](CCSC)C(=O)N[C@@H](CC(=O)O)C(=O)N[C@@H](Cc1ccccc1)C(N)=O ({CO}-[Phe(4-SO3H)]MGWMDF-NH2) | 4.4
CSCC[C@H](NC(=O)[C@H](Cc1c[nH]c2ccccc12)NC(=O)CCCCCNC(=O)[C@H](Cc1ccc(S(=O)(=O)O)cc1)NC(=O)O)C(=O)N[C@@H](CC(=O)O)C(=O)N[C@@H](Cc1ccccc1)C(N)=O ({CO}-[Phe(4-SO3H)][Ahx]WMDF-NH2) | 13
CSCC[C@H](NC(=O)[C@H](Cc1c[nH]c2ccccc12)NC(=O)C[C@@H]1CCCC[C@@H]1NC(=O)[C@H](Cc1ccc(S(=O)(=O)O)cc1)NC(=O)O)C(=O)N[C@@H](CC(=O)O)C(=O)N[C@@H](Cc1ccccc1)C(N)=O ({CO}-[Phe(4-SO3H)][X3]WMDF-NH2) | 3.4
CSCC[C@H](NC(=O)[C@H](Cc1c[nH]c2ccccc12)NC(=O)c1cc(NC(=O)[C@H](Cc2ccc(S(=O)(=O)O)cc2)NC(=O)O)ccc1C)C(=O)N[C@@H](CC(=O)O)C(=O)N[C@@H](Cc1ccccc1)C(N)=O ({CO}-[Phe(4-SO3H)][X4]WMDF-NH2) | 5
CSCC[C@H](NC(=O)[C@H](Cc1c[nH]c2ccccc12)NC(=O)CCCCNC(=O)[C@H](Cc1ccc(S(=O)(=O)O)cc1)NC(=O)O)C(=O)N[C@@H](CC(=O)O)C(=O)N[C@@H](Cc1ccccc1)C(N)=O ({CO}-[Phe(4-SO3H)][Ava]WMDF-NH2) | 9

Attention now shifts to the item below.
Observed IC50, Gastrin/cholecystokinin type B receptor (Bos taurus), CSCC[C@H](NC(=O)[C@H](Cc1c[nH]c2ccccc12)NC(=O)c1ccc(NC(=O)[C@H](Cc2ccc(S(=O)(=O)O)cc2)NC(=O)O)cc1)C(=O)N[C@@H](CC(=O)O)C(=O)N[C@@H](Cc1ccccc1)C(N)=O ({CO}-[Phe(4-SO3H)][4Abz]WMDF-NH2) : 0.085

###

Test system: Rattus norvegicus
Assay: Compound was evaluated for its ability to suppress food intake in one of two meal-fed rats after intraperitoneal administration of 32 ug/kg
Type: functional
Starred links: 1 amine or outer side, 2 acyl side, 3 side chain; linkers in the order of their positions; H or OH if unused. Non-standard residues stand in square brackets, D forms with d. Residues, ends and D or L forms follow the SMILES beside them. Phe(4-SO3H) = N[C@@H](Cc1ccc(S(=O)(=O)O)cc1)C(=O)O; CO = O=C([*:1])[*:2]; GABA = NCCCC(=O)O; βAla = NCCC(=O)O
Measured attribute: Control (%)
Give bare numbers, in %.

CSCC[C@H](NC(=O)[C@H](Cc1c[nH]c2ccccc12)NC(=O)CCCNC(=O)[C@H](Cc1ccc(S(=O)(=O)O)cc1)NC(=O)O)C(=O)N[C@@H](CC(=O)O)C(=O)N[C@@H](Cc1ccccc1)C(N)=O ({CO}-[Phe(4-SO3H)][GABA]WMDF-NH2) | 11

Recorded Control (compound CSCC[C@H](NC(=O)[C@H](Cc1c[nH]c2ccccc12)NC(=O)CCNC(=O)[C@H](Cc1ccc(S(=O)(=O)O)cc1)NC(=O)O)C(=O)N[C@@H](CC(=O)O)C(=O)N[C@@H](Cc1ccccc1)C(N)=O ({CO}-[Phe(4-SO3H)][βAla]WMDF-NH2) ): 108
